# tested.target: T1, human CTGF protein (R&D, Cat No. 9190-CC) (human, UniProt P29279 27-349)
# T1 construct: Bought protein; also called CTGF recombinant protein; CTGF (R&D)
# T1 sequence: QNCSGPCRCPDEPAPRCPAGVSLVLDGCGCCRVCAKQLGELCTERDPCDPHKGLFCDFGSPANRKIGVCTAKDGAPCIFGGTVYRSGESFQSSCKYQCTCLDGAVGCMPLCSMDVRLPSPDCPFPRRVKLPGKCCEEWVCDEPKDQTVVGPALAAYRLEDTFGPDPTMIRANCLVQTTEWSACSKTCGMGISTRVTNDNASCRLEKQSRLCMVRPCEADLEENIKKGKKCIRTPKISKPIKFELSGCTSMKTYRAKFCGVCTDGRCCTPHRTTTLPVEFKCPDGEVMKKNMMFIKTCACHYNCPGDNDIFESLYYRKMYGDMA
# method.summary: ELISA, plate coated with CTGF (R&D 9190-CC)
Simple rule here: EC50 less than 0.06 nM is 1.0, otherwise 0.0.

Here's what some known entries look like.
Hu147-33wk (antibody, human IgG1, kappa, V domains shown) VH: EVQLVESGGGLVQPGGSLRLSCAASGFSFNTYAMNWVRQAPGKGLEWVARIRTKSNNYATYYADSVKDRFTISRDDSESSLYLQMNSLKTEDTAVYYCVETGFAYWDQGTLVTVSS VL: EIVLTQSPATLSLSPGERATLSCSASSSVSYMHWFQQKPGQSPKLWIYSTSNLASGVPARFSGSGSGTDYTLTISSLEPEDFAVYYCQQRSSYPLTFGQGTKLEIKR    1.0
Hu147-14wk (antibody, human IgG1, kappa, V domains shown) VH: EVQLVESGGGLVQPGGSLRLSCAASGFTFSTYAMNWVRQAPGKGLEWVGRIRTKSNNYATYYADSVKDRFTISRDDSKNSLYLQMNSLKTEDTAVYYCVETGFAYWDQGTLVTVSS VL: DIQMTQSPSSLSASVGDRVTITCSASSSVSYMHWFQQKPGKSPKLLIYSTSNLASGVPSRFSGSGSGTDYTLTISSLQPEDFATYYCQQRSSYPLTFGQGTKLEIKR    0.0
Hu147-34wk (antibody, human IgG1, kappa, V domains shown) VH: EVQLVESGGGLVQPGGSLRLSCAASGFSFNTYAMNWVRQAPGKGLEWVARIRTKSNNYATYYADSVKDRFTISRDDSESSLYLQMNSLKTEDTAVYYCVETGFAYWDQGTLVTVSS VL: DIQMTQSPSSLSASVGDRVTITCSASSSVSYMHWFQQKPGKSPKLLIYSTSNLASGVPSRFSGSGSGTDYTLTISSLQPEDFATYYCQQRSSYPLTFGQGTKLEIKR    0.0
Hu95-51yk (antibody, human IgG1, kappa, V domains shown) VH: EVQLVQSGAEVKKPGASVKVSCRASGFTFTNYAIHWVKQAPGQRLEWMGLVYPYTGGTAYNQKFKDKVTLTFDTSASTAYMELSSLRSEDTAVYYCARWGMIPGTNSYFDVWGQGTTVTVSS VL: EIVLTQSPATLSLSPGERATLSCRASSSVSYIHWYQQKPGQAPRPWIYATSNLASGIPARFSGSGSGTDYTLTISRLEPEDFAVYYCQQWNSNPWTFGGGTKVEIKR    0.0
Hu147-15wk (antibody, human IgG1, kappa, V domains shown) VH: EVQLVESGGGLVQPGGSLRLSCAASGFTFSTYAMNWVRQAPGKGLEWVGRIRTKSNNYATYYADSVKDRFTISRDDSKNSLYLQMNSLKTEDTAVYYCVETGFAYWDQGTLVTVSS VL: DIQLTQSPSSLSASVGDRVTITCSASSSVSYMHWFQQKPGKSPKLWIYSTSNLASGVPSRFSGSGSGTDYTLTISSLQPEDFATYYCQQRSSYPLTFGQGTKLEIKR    1.0
positive control CTGF antibody mAb1 (antibody, V domains shown, Positive control, from CN1829740B; also called pamrevlumab; FG-3019) VH: EGQLVQSGGGLVHPGGSLRLSCAGSGFTFSSYGMHWVRQAPGKGLEWVSGIGTGGGTYSTDSVKGRFTISRDNAKNSLYLQMNSLRAEDMAVYYCARGDYYGSGSFFDCWGQGTLVTVSS VL: DIQMTQSPSSLSASVGDRVTITCRASQGISSWLAWYQQKPEKAPKSLIYAASSLQSGVPSRFSGSGSGTDFTLTISSLQPEDFATYYCQQYNSYPPTFGQGTKLEIKR    0.0
Hu147-23wk (antibody, human IgG1, kappa, V domains shown) VH: EVQLVESGGGLVQPGGSLRLSCAASGFTFNTYAMNWVRQAPGKGLEWVARIRTKSNNYATYYADSVKDRFTISRDDSKNSLYLQMNSLKTEDTAVYYCVETGFAYWDQGTLVTVSS VL: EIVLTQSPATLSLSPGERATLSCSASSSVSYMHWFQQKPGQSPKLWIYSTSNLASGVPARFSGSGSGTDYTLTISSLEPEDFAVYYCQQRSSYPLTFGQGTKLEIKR    1.0
Hu164-68wl (antibody, human IgG1, lambda, V domains shown) VH: EVTLKESGPVLVKPTETLTLTCTVSGFSLSTFGVHWIRQPPGKGLEWLGVIWRRGGTDYNAAFMSRLTISKDTSKSQVVFTMTNMDPVDTATYYCARDGGFDYWGQGTTVTVSS VL: ETVVTQEPSFSVSPGGTVTLTCRSSIGAVTTSNYANWVQQTPGQAFRGLIGGTSNRAPGVPDRFSGSILGNKAALTITGAQADDESDYYCALWYSTHYVFGGGTKLTVLG    0.0

For the next question, use this binder.
Exercise: Does this binder meet the criterion EC50 < 0.06 nM? Hu147-31wk (antibody, human IgG1, kappa, V domains shown) VH: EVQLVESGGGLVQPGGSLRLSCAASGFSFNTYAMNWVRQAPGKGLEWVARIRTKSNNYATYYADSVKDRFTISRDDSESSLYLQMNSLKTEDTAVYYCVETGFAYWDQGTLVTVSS VL: EIVLTQSPATLSLSPGERATLSCSASSSVSYMHWFQQKPGQSPRLLIYSTSNLASGIPARFSGSGSGTDYTLTISSLEPEDFAVYYCQQRSSYPLTFGQGTKLEIKR
Key: 1.0
